# SYSTEM NAME: mouse TAAR1 (Mus musculus (Mouse), UniProt Q923Y8)
# Sequence (Q923Y8 whole entry): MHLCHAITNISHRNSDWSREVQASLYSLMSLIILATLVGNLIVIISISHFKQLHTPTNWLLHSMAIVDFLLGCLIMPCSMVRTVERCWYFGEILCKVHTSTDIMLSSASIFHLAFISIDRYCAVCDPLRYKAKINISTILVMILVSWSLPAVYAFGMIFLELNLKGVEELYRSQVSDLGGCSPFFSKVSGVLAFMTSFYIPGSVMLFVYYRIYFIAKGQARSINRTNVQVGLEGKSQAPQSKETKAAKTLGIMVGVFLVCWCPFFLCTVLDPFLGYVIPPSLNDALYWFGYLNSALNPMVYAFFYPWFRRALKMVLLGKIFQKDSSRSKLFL

{"columns": ["COMPOUND", "Kd"],
 "data": [
  ["CCN(C[C@H]1COC(N)=N1)c1ccccc1 [reference compound]", "~0.7 nM"]
]}

---

# SYSTEM NAME: mouse TAAR1 (Mus musculus (Mouse), UniProt Q923Y8)
# ASSAY INFO: Radioligand binding assay on mouse TAAR1
# PROTOCOL CONDITIONS: mouse TAAR1, membranes of stably transfected HEK-293 cells; first value of the pair; read-out: Ki (μM) mouse/rat: mouse
Label yes (1) when Ki < 0.01 µM; otherwise no (0).

{"columns": ["MOLECULE", "CLASS NAME"],
 "data": [
  ["Cc1cn[nH]c1C(=O)Nc1ccc([C@H]2CNCCO2)nc1", "no (0)"],
  ["CCOc1ccc(C(=O)Nc2ccc(C3CNCCO3)nc2)cc1 (racemic)", "no (0)"],
  ["Cc1n[nH]c(C(=O)Nc2ccc([C@@H]3CNCCO3)nc2)c1Cl", "no (0)"],
  ["CCCc1n[nH]c(C(=O)Nc2ccc([C@@H]3CNCCO3)nc2)c1Cl", "yes (1)"],
  ["O=C(Nc1cnc(C2CNCCO2)nc1)c1ccc(Cl)cc1 (racemic)", "yes (1)"],
  ["O=C(Nc1ccc([C@@H]2CNCCO2)nc1)c1ccc(Cl)cc1", "yes (1)"],
  ["Cc1cn[nH]c1C(=O)Nc1ccc([C@@H]2CNCCO2)nc1", "no (0)"],
  ["FC(F)(F)c1ccnc(Nc2ccc([C@@H]3CNCCO3)nc2)c1", "no (0)"],
  ["CC(C)Cc1n[nH]c(C(=O)Nc2ccc([C@H]3CNCCO3)nc2)c1F", "no (0)"],
  ["CCc1n[nH]c(C(=O)Nc2ccc([C@H]3CNCCO3)nc2)c1F", "yes (1)"],
  ["O=C(Nc1ccc(C(F)(F)F)cc1)Nc1ccc(C2CNCCO2)nc1 (racemic)", "yes (1)"],
  ["O=C(Nc1ccc([C@@H]2CNCCO2)nc1)c1cccc(C(F)(F)F)c1", "yes (1)"],
  ["CC(C)c1n[nH]c(C(=O)Nc2ccc([C@H]3CNCCO3)nc2)c1F", "no (0)"],
  ["CCc1n[nH]c(C(=O)Nc2ccc([C@H]3CNCCO3)nc2)c1Br", "yes (1)"],
  ["CCCCc1n[nH]c(C(=O)Nc2ccc([C@H]3CNCCO3)nc2)c1F", "yes (1)"],
  ["CC(C)c1cc(C(=O)Nc2ccc([C@H]3CNCCO3)nc2)n(CC(F)(F)F)n1", "no (0)"],
  ["Cc1cc(NC(=O)Nc2cccc(Cl)c2)cnc1C1CNCCO1 (racemic)", "no (0)"],
  ["CCc1ncc(C(=O)Nc2ccc([C@@H]3CNCCO3)nc2)cn1", "no (0)"],
  ["CC(C)n1nc(OCC(F)(F)F)cc1C(=O)Nc1ccc([C@H]2CNCCO2)nc1", "no (0)"],
  ["FC(F)(F)c1ccc(Nc2ccc([C@H]3CNCCO3)nc2)cn1", "no (0)"],
  ["CCc1n[nH]c(C(=O)Nc2ccc([C@@H]3CNCCO3)nc2)c1C", "no (0)"],
  ["Clc1ccc(Nc2cnc(C3CNCCO3)nc2)cc1 (racemic)", "no (0)"],
  ["O=C(Nc1ccc([C@H]2CNCCO2)nc1)c1ccc(OCC(F)(F)F)nc1", "yes (1)"],
  ["CCc1n[nH]c(C(=O)Nc2ccc([C@@H]3CNCCO3)nc2)c1Cl", "yes (1)"],
  ["FC(F)(F)c1ccc(Nc2ccc([C@@H]3CNCCO3)nc2)nc1", "yes (1)"],
  ["CC(C)c1cc(C(=O)Nc2ccc([C@@H]3CNCCO3)nc2)[nH]n1", "no (0)"],
  ["CC(C)c1n[nH]c(C(=O)Nc2ccc([C@@H]3CNCCO3)nc2)c1F", "no (0)"],
  ["FC(F)(F)c1ccc(Nc2ccc([C@H]3CNCCO3)nc2)nc1", "yes (1)"],
  ["O=C(Nc1ccc([C@H]2CNCCO2)nc1)c1ccc(Cl)cc1", "yes (1)"],
  ["CCc1n[nH]c(C(=O)Nc2ccc([C@@H]3CNCCO3)nc2)c1Br", "yes (1)"],
  ["Cc1cc(Nc2ccc(C(F)(F)F)cn2)cnc1C1CNCCO1 (racemic)", "no (0)"],
  ["O=C(Nc1cccc(Cl)c1)Nc1cnc(C2CNCCO2)c(Cl)c1 (racemic)", "no (0)"],
  ["FC(F)(F)c1ccc(Nc2cnc(C3CNCCO3)nc2)cc1 (racemic)", "yes (1)"],
  ["O=C(Nc1ccc(C2CNCCO2)nc1)c1ccc(Cl)cc1 (racemic)", "yes (1)"],
  ["O=C(Nc1ccc(C2CNCCO2)nc1)c1ccc(F)cc1 (racemic)", "yes (1)"]
]}
